target: equine butyrylcholinesterase (eqBChE) (Equus caballus, UniProt P81908); conditions: read-out: IC50 (µM) eqBChE; mean ± S.D., three experiments in triplicate
Sequence (P81908 whole entry): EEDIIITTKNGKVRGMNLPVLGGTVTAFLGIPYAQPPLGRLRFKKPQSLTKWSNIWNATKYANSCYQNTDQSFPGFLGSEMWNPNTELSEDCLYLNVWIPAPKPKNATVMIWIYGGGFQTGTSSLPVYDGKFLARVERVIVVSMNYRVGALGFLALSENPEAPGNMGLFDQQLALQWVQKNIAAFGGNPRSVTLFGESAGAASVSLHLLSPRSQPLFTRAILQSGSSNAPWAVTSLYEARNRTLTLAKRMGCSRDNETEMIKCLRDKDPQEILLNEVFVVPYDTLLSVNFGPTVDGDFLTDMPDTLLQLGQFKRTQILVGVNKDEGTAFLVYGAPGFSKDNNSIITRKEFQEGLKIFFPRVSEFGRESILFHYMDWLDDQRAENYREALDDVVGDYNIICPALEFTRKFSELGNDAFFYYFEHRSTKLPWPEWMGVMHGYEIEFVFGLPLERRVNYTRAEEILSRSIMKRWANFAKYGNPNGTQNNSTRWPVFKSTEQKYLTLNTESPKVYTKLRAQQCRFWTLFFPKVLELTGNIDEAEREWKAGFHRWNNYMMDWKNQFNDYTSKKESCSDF
testReadout: IC50 (µM)
Supply the numeric figure in µM, leaving out any unit text.

molecule | IC50 / µM
C[n+]1c(Cl)c(Cl)n(CC(O)c2ccccc2)[c]1[Au-][O]C(=O)[C@@H]1CCCN1C(=O)OC(C)(C)C (some centres unmarked) | 3.14

Problem: Which value of IC50 has been reported for C[n+]1[c]([Au-][O]C(=O)[C@@H]2CCCN2C(=O)OC(C)(C)C)n(CC(O)c2ccccc2)c2ccccc21 (some centres unmarked) in the records?
Result: 0.45

Problem: Name the reported IC50 value associated with the molecule C[n+]1ccn(CC(O)c2ccccc2)[c]1[Au-][O]C(=O)[C@@H]1CCCN1C(=O)OC(C)(C)C (some centres unmarked)
Result: 6.19

Problem: I would be grateful if you could share the reported IC50 for C[n+]1c(-c2ccccc2)c(-c2ccccc2)n(CC(O)c2ccccc2)[c]1[Ag-][O]C(=O)[C@@H]1CCCN1C(=O)OC(C)(C)C (some centres unmarked) .
Result: 17.4

Problem: Reported IC50, molecule C[n+]1c(Cl)c(Cl)n(CC(O)c2ccccc2)[c]1[Ag-][O]C(=O)[C@@H]1CCCN1C(=O)OC(C)(C)C (some centres unmarked) : ____
Result: 18.2

Problem: Could you share which IC50 value was measured for C[n+]1[c]([Ag-][O]C(=O)[C@@H]2CCCN2C(=O)OC(C)(C)C)n(CC(O)c2ccccc2)c2ccccc21 (some centres unmarked) ?
Result: 5.19

* * *

target: hMAO-A (Homo sapiens); experiment: hMAO-A inhibitory activity; type: biochemical; conditions: Table S2, experimentally derived IC50; read-out: IC50 (μM), hMAOA (Table S2)
Sequence (P21397 whole entry): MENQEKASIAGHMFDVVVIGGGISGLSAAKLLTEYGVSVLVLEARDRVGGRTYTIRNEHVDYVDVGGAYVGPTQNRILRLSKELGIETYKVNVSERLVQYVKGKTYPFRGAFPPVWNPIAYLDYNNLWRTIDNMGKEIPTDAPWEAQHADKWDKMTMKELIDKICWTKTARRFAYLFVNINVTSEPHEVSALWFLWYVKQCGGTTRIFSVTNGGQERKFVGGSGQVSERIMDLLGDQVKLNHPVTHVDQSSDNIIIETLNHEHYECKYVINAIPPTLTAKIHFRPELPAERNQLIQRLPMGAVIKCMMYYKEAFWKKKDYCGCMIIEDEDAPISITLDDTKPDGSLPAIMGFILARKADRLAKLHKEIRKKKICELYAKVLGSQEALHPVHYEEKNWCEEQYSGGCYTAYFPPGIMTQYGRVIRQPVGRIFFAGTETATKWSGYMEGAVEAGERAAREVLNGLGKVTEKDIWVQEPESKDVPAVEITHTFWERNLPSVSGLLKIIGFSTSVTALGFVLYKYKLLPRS
testReadout: IC50 (µM)
Please respond with the number in µM and leave the unit unwritten.

molecule | IC50, µM
C[n+]1c(Cl)c(Cl)n(CC(O)c2ccccc2)[c]1[Ag-][O]C(=O)[C@@H]1CCCN1C(=O)OC(C)(C)C (some centres unmarked) | 15

Then there is this molecule:
Problem: Reported IC50 for C[n+]1[c]([Ag-][O]C(=O)[C@@H]2CCCN2C(=O)OC(C)(C)C)n(CC(O)c2ccccc2)c2ccccc21 (some centres unmarked) : what is it?
Result: 3.3

* * *

target: equine butyrylcholinesterase (eqBChE) (Equus caballus)
testReadout: SI, eqBChE selectivity index = IC50(eeAChE)/IC50(eqBChE)

Some molecules with recorded SI, eqBChE selectivity index = IC50(eeAChE)/IC50(eqBChE):
molecule | valueReported
C[n+]1c(Cl)c(Cl)n(CC(O)c2ccccc2)[c]1[Ag-][O]C(=O)[C@@H]1CCCN1C(=O)OC(C)(C)C (stereo partly drawn) | >1.37
C[n+]1ccn(CC(O)c2ccccc2)[c]1[Au-][O]C(=O)[C@@H]1CCCN1C(=O)OC(C)(C)C (stereo partly drawn) | 2.97
C[n+]1c(Cl)c(Cl)n(CC(O)c2ccccc2)[c]1[Au-][O]C(=O)[C@@H]1CCCN1C(=O)OC(C)(C)C (stereo partly drawn) | 1.49
C[n+]1c(-c2ccccc2)c(-c2ccccc2)n(CC(O)c2ccccc2)[c]1[Ag-][O]C(=O)[C@@H]1CCCN1C(=O)OC(C)(C)C (stereo partly drawn) | >1.44
C[n+]1[c]([Au-][O]C(=O)[C@@H]2CCCN2C(=O)OC(C)(C)C)n(CC(O)c2ccccc2)c2ccccc21 (stereo partly drawn) | 8.27

Continue with the next molecule.
Problem: Can you look up the measured SI, eqBChE selectivity index = IC50(eeAChE)/IC50(eqBChE) of C[n+]1[c]([Ag-][O]C(=O)[C@@H]2CCCN2C(=O)OC(C)(C)C)n(CC(O)c2ccccc2)c2ccccc21 (stereo partly drawn) for me?
Result: 2.68
